List of melting point values.

A selection of reference data follows.
C=CCOc1cccc2oc(=O)c(C(=O)O)cc12 | 115 to 117 °C
CC(C)=CCC/C(C)=C/COc1cccc2cc(C(=O)O)c(=O)oc12 [Compound 18c] | 100 to 101 °C
CC(C)=CCC/C(C)=C/CC/C(C)=C/COc1ccc2oc(=O)c(C(=O)O)cc2c1 | 98 to 99 °C
CC(C)=CCOc1cccc2cc(C(=O)O)c(=O)oc12 [Compound 18b] | 143 to 144 °C
CC(C)=CCOc1ccc2oc(=O)c(C(=O)O)cc2c1 | 158 to 159 °C
CC(C)=CCC/C(C)=C/CC/C(C)=C/COc1cccc2oc(=O)c(C(=O)O)cc12 | 39 to 40 °C
CC(C)=CCOc1cccc2oc(=O)c(C(=O)O)cc12 | 85 to 86 °C
CC(C)=CCC/C(C)=C/COc1ccc2cc(C(=O)O)c(=O)oc2c1 [Compound 12c] | 118 to 119 °C

Attention now shifts to the item below.
Returns the measured melting point for the input molecule. Input: "CC(C)=CCC/C(C)=C/COc1ccc2oc(=O)c(C(=O)O)cc2c1"
130 to 131 °C

* * *

List of melting point values.

A selection of reference data follows.
CC(C)=CCC/C(C)=C/CC/C(C)=C/COc1ccc2cc(C(=O)O)c(=O)oc2c1 [Compound 12d] | 87 to 90 °C
CC(C)=CCC/C(C)=C/COc1cccc2oc(=O)c(C(=O)O)cc12 | 49 to 50 °C
C=CCOc1ccc2oc(=O)c(C(=O)O)cc2c1 | 167 to 168 °C
C=CCOc1cccc2cc(C(=O)O)c(=O)oc12 [Compound 18a] | 198 to 200 °C
CC(C)=CCOc1ccc2cc(C(=O)O)c(=O)oc2c1 [Compound 12b] | 147 to 148 °C

Attention now shifts to the item below.
Returns the measured melting point for the input compound. Input: C=CCOc1ccc2cc(C(=O)O)c(=O)oc2c1 [Compound 12a]
205 to 207 °C

Provenance of the data: paper PMC5300203
